B1: 1-phosphatidylinositol 4,5-bisphosphate phosphodiesterase gamma-2, residues 772 to 827; numbered along this chain, P16885 (parent)
chain: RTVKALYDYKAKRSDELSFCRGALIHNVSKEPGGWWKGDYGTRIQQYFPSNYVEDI

Variants of: B1
Assay: abundance fitness (aPCA) (normalised: wild type 0, dead -1); higher = more abundant; growth selection in yeast, the domain comes from the species named
Details: Homo sapiens
recordedMetric: abundance fitness
Lab note: jot the number down without any unit.

Before answering, review these 4 worked examples.
orderedresidues=RTVKALYDYKAKRSDELSFCRGALIHNVSKEPGGWWKGDYGNRIQQYFPSNYVEDI recordedmetric="abundance fitness" reportedvalue=0.139
orderedresidues=RTVKALYDYKAKRSDELSFCRGALIHNVSKEPGGWWPGDYGTRIQQYFPSNYVEDI recordedmetric="abundance fitness" reportedvalue=-0.617
orderedresidues=RTVKALYDYKAKRSDELSFCRGALIHNVSKEPHGWWKGDYGTRIQQYFPSNYVEDI recordedmetric="abundance fitness" reportedvalue=-0.277
orderedresidues=RTVKALYDYKAKRSDEWSFCRGALIHNVSKEPGGWWKGDYGTRIQQYFPSNYVEDI recordedmetric="abundance fitness" reportedvalue=-0.884

Requested read-out: abundance fitness. Entry: RTVKALYDYKAKRSDELSFCRGALIHNVSKEPGGWWKGDYGTRIQQCFPSNYVEDI
-0.401

Requested read-out: abundance fitness. Entry: RTVKALYDYKAKRSDELSFHRGALIHNVSKEPGGWWKGDYGTRIQQYFPSNYVEDI
0.151

Requested read-out: abundance fitness. Entry: RTVKALYDYKAKRSDELSFCRVALIHNVSKEPGGWWKGDYGTRIQQYFPSNYVEDI
-0.911

Entry source: the Human Domainome abundance scans (Beltran et al. 2025)
